System name: HLA-A*80:01
Measurement description: IEDB peptide-MHC binding, purified MHC/direct/fluorescence; filed as Kd, often an IC50 or EC50 that approximates it; bounds were set here for any values at or beyond the usual limits of such assays
Reported conditions: source organism: West Nile virus
Property name: Kd (nM)
Quick reminder: number only, in nM, skip the unit.

Can you share its Kd? I mean this sequence: LTKEEFTRY
544

----------
System name: HLA-A*02:01
Measurement description: IEDB peptide-MHC binding, purified MHC/direct/fluorescence; filed as Kd, often an IC50 or EC50 that approximates it; bounds were set here for any values at or beyond the usual limits of such assays
Reported conditions: source organism: Campylobacter jejuni RM1221
Property name: pKd
Just the number, please; pKd means minus log10 of the concentration in mol/L.

Please provide the recorded pKd for GIYHDICEI , tested on HLA-A*02:01.
6.79

----------
System name: HLA-B*18:01
Measurement description: IEDB peptide-MHC binding, purified MHC/competitive/fluorescence; filed as Kd, often an IC50 or EC50 that approximates it; bounds were set here for any values at or beyond the usual limits of such assays
Reported conditions: source organism: Reston ebolavirus
Property name: Kd

Can you share its Kd? I mean this sequence: WFQRIPLQW
≥ 20 µM

----------
System name: HLA-B*27:03
Measurement description: IEDB peptide-MHC binding, purified MHC/competitive/fluorescence; filed as Kd, often an IC50 or EC50 that approximates it; bounds were set here for any values at or beyond the usual limits of such assays
Reported conditions: source organism: Orthohantavirus sinnombreense
Property name: Kd

Please provide the recorded Kd for TEFFMSRKL , tested on HLA-B*27:03.
≥ 20 µM

----------
Measured Kd, listed per entry for reference.
System name: HLA-B*07:02
Measurement description: IEDB peptide-MHC binding, purified MHC/direct/fluorescence; filed as Kd, often an IC50 or EC50 that approximates it; bounds were set here for any values at or beyond the usual limits of such assays
Reported conditions: source organism: SARS-CoV1
Quick reminder: number only, in nM, skip the unit.

MPASWVMRI	508

// below: Kd requested for another sequence
Can you share its Kd? I mean this sequence: VPGLPGTVL
91.5

----------
System name: HLA-A*03:01
Measurement description: IEDB peptide-MHC binding, purified MHC/direct/fluorescence; filed as Kd, often an IC50 or EC50 that approximates it; bounds were set here for any values at or beyond the usual limits of such assays
Reported conditions: source organism: Cryptosporidium parvum
pKd: −log10 of the molar value.
Property name: pKd

Can you share its pKd? I mean this sequence: RLLRMNNEN
≤ 4.70

----------
System name: HLA-B*46:01
Measurement description: IEDB peptide-MHC binding, purified MHC/competitive/fluorescence; filed as Kd, often an IC50 or EC50 that approximates it; bounds were set here for any values at or beyond the usual limits of such assays
Reported conditions: source organism: Orthohantavirus sinnombreense
pKd: −log10 of the molar value.
Property name: pKd

Can you share its pKd? I mean this sequence: TEFFMSRKL
≤ 4.70

----------
System name: HLA-A*32:07
Measurement description: IEDB peptide-MHC binding, purified MHC/competitive/fluorescence; filed as Kd, often an IC50 or EC50 that approximates it; bounds were set here for any values at or beyond the usual limits of such assays
Reported conditions: source organism: Escherichia coli 536
Property name: Kd (nM)
Quick reminder: number only, in nM, skip the unit.

Can you share its Kd? I mean this sequence: RQRAVRMVL
30.7
